tested on: Schistosoma mansoni schistosomula (Liberian); assay: drug effect (1 - score/DMSO control score) (fraction); higher = more antischistosomal effect, active = 0.5 or more; extreme values may be limits of the assay; conditions: 48 h; 10 µM
# output must be one of active, inactive

Just curious, what result did Cc1cccc(NC(=O)c2cc(S(=O)(=O)N(C)c3ccc(F)cc3)ccc2Cl)n1 get here?
inactive

----------
system: Schistosoma mansoni schistosomula (Liberian); experiment: drug effect (1 - score/DMSO control score) (fraction); higher = more antischistosomal effect, active = 0.5 or more; extreme values may be limits of the assay; conditions: 72 h; 10 µM
# output must be one of TRUE (active), FALSE (inactive)

Just curious, what result did O=C(C1CCN(c2nnnn2-c2ccccc2)CC1)N1CCc2ccccc2C1 get here?
FALSE

----------
system: Schistosoma mansoni schistosomula (Liberian); test: drug effect (1 - score/DMSO control score) (fraction); higher = more antischistosomal effect, active = 0.5 or more; extreme values may be limits of the assay; settings: 24 h; 10 µM
attribute measured: drug effect
Answer with a bare number; do not write a unit.

| molecule | target system | drug effect |
| --- | --- | --- |
| CC[C@@H]([C@H](C)O)n1ncn(-c2ccc(N3CCN(c4ccc(OC[C@@H]5CO[C@@](Cn6cncn6)(c6ccc(F)cc6F)C5)cc4)CC3)cc2)c1=O | Schistosoma mansoni schistosomula (Liberian) | 0.2 |

For the molecule Nc1ncnc2c1c(-c1cnc3ccccc3c1)nn2CC1CCNCC1 , what drug effect is on record?
0.2

----------
system: Schistosoma mansoni schistosomula (LE); assay: XTT viability relative to DMSO control; higher = more viable (less active); conditions: 72 h; 10 µM
Overview of reported XTT viability across a group of molecules:
Field format: number, assumed %, no unit text.

Use these answered entries as a reference point.
| molecule | XTT viability (%) |
| --- | --- |
| C[C@H](C(N)=O)N1CCCC[C@H]1c1ccc(OCc2cccc(F)c2)cc1 | 118 |
| CC(C)(C)c1cc(C(=O)Nc2cccnc2)cc(C(=O)Nc2cccnc2)c1 | 79.8 |
| FC(F)(F)c1nnc2ccc(Cl)nn12 | 84 |
| CCCCc1ccc(C(=O)Nc2nccc3ccccc23)nc1 | 94.2 |
| CCCCc1ccc(NC(=O)Nc2ccc(O[C@H]3CCCC[C@@H]3N(C)c3ccccc3)c(F)c2)cc1 | 33.7 |

For the molecule Cc1ccc2c(c1C)NC(=O)C21NN=C(c2ccccc2)S1 (configuration not stated) , what XTT viability is on record?
125

Further, for CCCn1c(CNc2ccccc2O)nc2ccccc21 ?
337

Further, for CC(=O)NCC1CN(c2ccc(-c3ccc(CNCc4cn[nH]n4)cc3)c(F)c2)C(=O)O1 (configuration not stated) ?
108

Further, for CN1CCN(c2nccc3nc(-c4ccc(F)c(F)c4)[nH]c23)CC1 ?
110

Further, for O=C(NC1CC1)c1ccc(N2CCC(Cc3ccccc3)CC2)nc1 ?
91.1

Further, for Nc1nc(N)c2c3c(sc2n1)CN(Cc1ccccc1)CC3 ?
131

Further, for COc1cccc(CC(=O)N2CCC(n3c(C)nc4ccc(F)cc43)CC2)c1 ?
116

----------
tested on: Schistosoma mansoni schistosomula (Liberian); experiment: drug effect (1 - score/DMSO control score) (fraction); higher = more antischistosomal effect, active = 0.5 or more; extreme values may be limits of the assay; conditions: 72 h; 10 µM
attribute measured: drug effect
Answer with a bare number; do not write a unit.

| molecule | test value |
| --- | --- |
| O=C(NCc1cc(Cl)cc(Cl)c1)c1c(C(F)(F)F)nc2ccccn12 | 0.312 |

Now for another entry.
For the molecule O=C(C1CCCCC1)N1CC(=O)N2CCc3ccccc3C2C1 (stereo unspecified) , what drug effect is on record?
0.556
